# SYSTEM NAME: DCLK2 (human)
# EXPERIMENT SUMMARY: radiometric filter-binding kinase assay, Kinase HotSpot
# CONDITION SUMMARY: compound 0.5 µM; ATP 10 µM
Record form. Attribute: residual activity. Fill in for each entry.
Give the number; % is assumed, so skip it.

Form: item "O=S(=O)(c1cccc2cnccc12)N1CCCNCC1" ; test system DCLK2 (human); residual activity: 83.9

Form field residual activity for item "N#C/C(=C(/N)Sc1ccc(N)cc1)c1ccccc1C(F)(F)F" on DCLK2 (human): 99.1

Entry "COc1ccc2c(c[n+](C)c3c4cc5c(cc4ccc23)OCO5)c1OC" ; assay system DCLK2 (human); residual activity recorded at 96

Record for "O=c1cc(N2CCOCC2)oc2c1ccc1ccccc12" under target or system DCLK2 (human): residual activity reported as 100

Lab note: molecule "N#CC(C#N)=C(N)/C(C#N)=C/c1ccc(O)cc1" tested on DCLK2 (human); recorded residual activity was 101

DCLK2 (human) assay, molecule "Nc1ncnc2[nH]nc(Nc3ccc(F)cc3)c12" , recorded residual activity = 99.5

The molecule "O=C1NC(=O)c2c1c1c3ccccc3n3c1c1c2c2ccccc2n1C1CCC3O1" , when measured on DCLK2 (human), yielded residual activity of 89.6

Let me check: "Cc1ccc(S(=O)(=O)/C=C/C#N)cc1" , system DCLK2 (human), measured residual activity is 96.1

Given the molecule "CC(=O)c1ccc(N2CCOCC2)cc1O" and test system DCLK2 (human), the measured residual activity is 101

The molecule "Nc1ncnc2c1c(-c1ccc(Oc3ccccc3)cc1)cn2C1CCCC1" on DCLK2 (human): residual activity was 99.5

Entry "CC#CC(=O)Nc1cc2c(Nc3ccc(F)c(Cl)c3)ncnc2cn1" , tested on DCLK2 (human), has a reported residual activity of 102

Lab entry: DCLK2 (human) assay, molecule "CCOC(=O)c1c(C)[nH]c(/C=C2\C(=O)Nc3ccccc32)c1C" , residual activity = 94.7

* * *

For each of the compounds below, state its residual activity.
# SYSTEM NAME: CSNK2A2 (human)
# EXPERIMENT SUMMARY: radiometric filter-binding kinase assay, Kinase HotSpot
# CONDITION SUMMARY: compound 0.5 µM; ATP 10 µM
State the answer as a number, implicitly in %.

Form: compound = "Cc1[nH]c(/C=C2\C(=O)Nc3ccc(S(=O)(=O)N(C)c4cccc(Cl)c4)cc32)c(C)c1C(=O)N1CCN(C)CC1" ; residual activity = 84.6

Lab note: measured residual activity of "CNC(=O)c1cc(Oc2ccc(NC(=O)Nc3ccc(Cl)c(C(F)(F)F)c3)cc2)ccn1" was 94.4

Query "O=C1NC(=O)/C(=C/c2ccc3c(c2)OC(F)(F)O3)S1" yields residual activity of 29.9

Measured residual activity, "O=S(=O)(c1cccc2cnccc12)N1CCCNCC1" : 91.9

Query "CC(C)N(CCC(=O)c1ccc2ccccc2c1)Cc1ccccc1" yields residual activity of 95.4

residual activity in this record for "CCOC(=O)c1c(C)[nH]c(/C=C2\C(=O)Nc3ccccc32)c1C" : 94.7

Value of measured residual activity for the entry "N#CC(C#N)=C(N)/C(C#N)=C/c1ccc(O)cc1" : 102

Notebook: "COc1ccc2c(c[n+](C)c3c4cc5c(cc4ccc23)OCO5)c1OC" , residual activity read as 89.7

Lab note: measured residual activity of "CC[n+]1c(/C=C/N(C)c2ccccc2)n(-c2ccccc2)c2ccc(-c3nc4ccccc4s3)cc21" was 105

Entry under test: "Nc1ncnc2c1c(-c1ccc(Oc3ccccc3)cc1)cn2C1CCCC1" . Its residual activity was 74.7

The measured residual activity associated with "N#C/C(=C(/N)Sc1ccc(N)cc1)c1ccccc1C(F)(F)F" reads 86

Notebook: "COc1cc2ncnc(Nc3cccc(Cl)c3)c2cc1OC" , residual activity read as 92.3

For record "CC(=O)c1ccc(N2CCOCC2)cc1O" the listed residual activity is 98.8

Sure, the documented residual activity for "O=C(Nc1cccc(Nc2nccc(Nc3cccc(C(F)(F)F)c3)n2)c1)C1CC1" is 95.4

Briefly, residual activity measured for "CCN(CC)C(=O)c1ccc(Nc2nc(OCC3CCCCC3)c3nc[nH]c3n2)cc1" : 90.9

Field residual activity (entry "Cc1ccc(Nc2nccc(N(C)c3ccc4c(C)n(C)nc4c3)n2)cc1S(N)(=O)=O" ) reads 99.8

Measured residual activity of "Oc1cccc(-c2nc(N3CCOCC3)c3oc4ncccc4c3n2)c1" : 56.2

Looking up "O=C1NC(=O)c2c1c1c3ccccc3n3c1c1c2c2ccccc2n1C1CCC3O1" , I found its residual activity recorded as 4.47

Sure, the documented residual activity for "Cc1ccc(NC2=CC(=O)c3sc(C)nc3C2=O)cc1" is 87.8

residual activity reading for CO[C@H]1CC2CC[C@@H](C)[C@@](O)(O2)C(=O)C(=O)N2CCCC[C@H]2C(=O)OC([C@H](C)C[C@@H]2CC[C@@H](O)[C@H](OC)C2)CC(=O)[C@H](C)/C=C(\C)[C@@H](O)[C@@H](OC)C(=O)[C@H](C)C[C@H](C)/C=C/C=C/C=C/1C (some centres not stated) : 94.2

The value of residual activity measured for the compound "Cc1ccc(S(=O)(=O)/C=C/C#N)cc1" turned out to be 97.9

residual activity recorded for this compound, "Nc1ccc2ncnc(NCCc3ccc(Oc4ccccc4)cc3)c2c1" , is 103
